Field: tissue to tissue ratio at 1 h. Provide a value for each of the compounds that follow.
- experiment: Biodistribution in PC-3 tumor-bearing CB17-SCID mice
- Type: in vivo
- condition context: CB17-SCID, mouse, tumor and intestine, iv, 100 pmol, total radioactivity; ^68Ga-labeled; 1 h p.i.; n = 4; read-out: Tumor-to-Intestine ratio
Starred links: 1 amine or outer side, 2 acyl side, 3 side chain; linkers in the order of their positions; H or OH if unused. Non-standard residues stand in square brackets, D forms with d. Residues, ends and D or L forms follow the SMILES beside them. *: point of attachment. DOTA = O=C(O)CN1CCN(CC(=O)O)CCN(CC(=O)*)CCN(CC(=O)O)CC1; Sta = CC(C)C[C@H](N)[C@@H](O)CC(=O)O; Bta = N[C@@H](Cc1csc2ccccc12)C(=O)O; X1 = O=C(CN1CCC(N[*:1])CC1)[*:2]; hSer = N[C@@H](CCO)C(=O)O
Answers are plain numbers.

CC(C)C[C@H](NC(=O)C[C@H](O)[C@H](CC(C)C)NC(=O)[C@H](Cc1c[nH]cn1)NC(=O)CNC(=O)[C@@H](NC(=O)[C@H](C)NC(=O)[C@H](Cc1c[nH]c2ccccc12)NC(=O)[C@H](CCO)NC(=O)[C@@H](Cc1ccccc1)NC(=O)CN1CCC(NC(=O)CN2CCN(CC(=O)O)CCN(CC(=O)O)CCN(CC(=O)O)CC2)CC1)C(C)C)C(N)=O [[^68Ga]Ga-[Hse^7]RM2, metal not drawn] ({DOTA}-[X1][dF][hSer]WAVGH[Sta]L-NH2) : 5

Continue with the compound presented below.
Inquiry: tissue to tissue ratio at 1 h lookup needed for CC(C)C[C@H](NC(=O)C[C@H](O)[C@H](CC(C)C)NC(=O)[C@H](Cc1c[nH]cn1)NC(=O)CNC(=O)[C@@H](NC(=O)[C@H](C)NC(=O)[C@H](Cc1csc2ccccc12)NC(=O)[C@H](CCC(N)=O)NC(=O)[C@@H](Cc1ccccc1)NC(=O)CN1CCC(NC(=O)CN2CCN(CC(=O)O)CCN(CC(=O)O)CCN(CC(=O)O)CC2)CC1)C(C)C)C(N)=O [[^68Ga]Ga-[Bta^8]RM2, metal not drawn] ({DOTA}-[X1][dF]Q[Bta]AVGH[Sta]L-NH2) , thanks.
Reply text: 12.2

====

Field: tissue to tissue ratio at 1 h. Provide a value for each of the compounds that follow.
- experiment: Biodistribution in PC-3 tumor-bearing CB17-SCID mice
- Assay type: in vivo
- condition context: CB17-SCID, mouse, tumor and stomach, iv, 100 pmol, total radioactivity; ^68Ga-labeled; 1 h p.i.; n = 4; read-out: Tumor-to-Stomach ratio
Starred links: 1 amine or outer side, 2 acyl side, 3 side chain; linkers in the order of their positions; H or OH if unused. Non-standard residues stand in square brackets, D forms with d. Residues, ends and D or L forms follow the SMILES beside them. *: point of attachment. DOTA = O=C(O)CN1CCN(CC(=O)O)CCN(CC(=O)*)CCN(CC(=O)O)CC1; Sta = CC(C)C[C@H](N)[C@@H](O)CC(=O)O; Bta = N[C@@H](Cc1csc2ccccc12)C(=O)O; X1 = O=C(CN1CCC(N[*:1])CC1)[*:2]; hSer = N[C@@H](CCO)C(=O)O
Numbers only.

CC(C)C[C@H](NC(=O)C[C@H](O)[C@H](CC(C)C)NC(=O)[C@H](Cc1c[nH]cn1)NC(=O)CNC(=O)[C@@H](NC(=O)[C@H](C)NC(=O)[C@H](Cc1csc2ccccc12)NC(=O)[C@H](CCC(N)=O)NC(=O)[C@@H](Cc1ccccc1)NC(=O)CN1CCC(NC(=O)CN2CCN(CC(=O)O)CCN(CC(=O)O)CCN(CC(=O)O)CC2)CC1)C(C)C)C(N)=O [[^68Ga]Ga-[Bta^8]RM2, metal not drawn] ({DOTA}-[X1][dF]Q[Bta]AVGH[Sta]L-NH2) : 7.1

Inquiry: tissue to tissue ratio at 1 h lookup needed for CC(C)C[C@H](NC(=O)C[C@H](O)[C@H](CC(C)C)NC(=O)[C@H](Cc1c[nH]cn1)NC(=O)CNC(=O)[C@@H](NC(=O)[C@H](C)NC(=O)[C@H](Cc1c[nH]c2ccccc12)NC(=O)[C@H](CCO)NC(=O)[C@@H](Cc1ccccc1)NC(=O)CN1CCC(NC(=O)CN2CCN(CC(=O)O)CCN(CC(=O)O)CCN(CC(=O)O)CC2)CC1)C(C)C)C(N)=O [[^68Ga]Ga-[Hse^7]RM2, metal not drawn] ({DOTA}-[X1][dF][hSer]WAVGH[Sta]L-NH2) , thanks.
Reply text: 4.1
